Test system: SN12C renal
procedure_details: NCI-60 one-dose screen, 48 h
test_parameters: 10 µM unless noted
This is part of a sample that, as a whole, favours compounds with a hit. Of some 83,000 tested, about 20% had one in any assay. Calls of active or inactive are those of the source. Rule for the calls: active = growth percent below 10; inactive = the rest.
Choose one outcome from this list and give only that: active, inactive

Hey, what did the test say about CCc1nc(C(N)=O)c(Nc2ccc(N3CCC(N4CCN(C)CC4)CC3)c(OC)c2)nc1NC1CCOCC1 ? inactive

Now consider COc1cc2ncnc(Nc3ccc(O)cc3)c2cc1OC . inactive

Now consider COc1ccc(OC)c(NC2=C(SCCc3ccccc3)C(=O)c3ccccc3C2=O)c1 . inactive

Now consider Cn1ncc(Cl)c1-c1cc(C(=O)N[C@H](CN)Cc2cccc(F)c2)sc1Cl . inactive

Now consider Cc1cc(-c2cc(O)ccc2Cl)cc2nnc(Nc3ccc(OCCN4CCCC4)cc3)nc12 . active

Now consider C[C@H]1Oc2cc(cnc2N)-c2c(nn(C)c2C#N)CN(C)C(=O)c2ccc(F)cc21 . inactive

Now consider CN(C)CCn1c(=O)c2c3cc4c(cc3n(CCN(C)C)c2c2ccc(Cl)cc21)OCO4 . inactive

Now consider CCc1nc2cc(/C=C/C(=O)NO)c(F)cc2c(=O)n1CCc1ccccc1 . active

Now consider Cn1cc(-c2cnn3c(N)c(Br)c([C@@H]4CCCNC4)nc23)cn1 . inactive

Now consider O=C(Nc1ccc(C(=O)Nc2ccc(C3=NCCCN3)cc2)cc1)Nc1ccc(C2=NCCCN2)cc1 . inactive

Next:
Hey, what did the test say about [2H]C1([2H])[C@H](C)O[C@H](C)C([2H])([2H])N1c1ccc(NC(=O)c2cccc(-c3ccc(OC(F)(F)F)cc3)c2C)cn1 ? inactive

Now consider Cc1ccc2oc(=O)cc(-c3cc(-c4cc5ccccc5oc4=O)nc(N)c3C#N)c2c1 . inactive

* * *

Tested on: ACHN renal
procedure_details: NCI-60 one-dose screen, 48 h (100 = growth as untreated, 0 = no growth, -100 = all killed)
test_parameters: 10 µM unless noted
The panel holds about 83,000 compounds, 20% with a hit somewhere; the sample as a whole holds those more often.
Assign Criterion met whenever growth does not fall below 50%; assign Criterion not met whenever it does.

Is the recorded value of growth equal to or greater than 50% for this molecule? C=CCN(/C=C1/C(=O)O[C@H](COC)[C@@]2(C)C1=C(O)C(=O)C1=C2[C@H](OC(C)=O)C[C@]2(C)C(=O)CC[C@@H]12)CC=C Criterion not met

Next:
Is the recorded value of growth equal to or greater than 50% for this molecule? CN1CC[C@H](c2c(O)cc(O)c3c(=O)cc(-c4ccccc4Cl)oc23)[C@H](O)C1 Criterion not met

Now consider COC(=O)CNC(=O)[C@@H](OC)[C@@H]1Cc2cc3cc(OC4CC(OC5CC(O)C(O)C(C)O5)C(O)C(C)O4)c(C)c(O)c3c(O)c2C(=O)[C@H]1OC1CC(OC2CC(OC3CC(C)(O)C(O)C(C)O3)C(O)C(C)O2)C(O)C(C)O1 (stereo partly drawn) . Criterion not met

Now consider O=c1nc2c(-c3nc4ccccc4s3)n[nH]n2c2sc3c(c12)CCCC3 . Criterion met

Now consider Cc1sc2c(c1C)c(=O)nc1c(-c3nc(-c4ccccc4)cs3)n[nH]n12 . Criterion met

Now consider CCOC(=O)c1sc(NC(=O)COc2ccc(/C=C3\Cc4ccc(Cl)cc4C3=O)cc2)nc1C . Criterion met

Now consider COc1ccc(COc2cc3oc(=O)c4cc(C(C)O)ccc4c3cc2OC)cc1 (stereo not drawn) . Criterion not met
